Biological target: T1, Formyl-Peptide Receptor 1 (UniProt P21462 1-350, limits assumed)
T1 sequence (looked up): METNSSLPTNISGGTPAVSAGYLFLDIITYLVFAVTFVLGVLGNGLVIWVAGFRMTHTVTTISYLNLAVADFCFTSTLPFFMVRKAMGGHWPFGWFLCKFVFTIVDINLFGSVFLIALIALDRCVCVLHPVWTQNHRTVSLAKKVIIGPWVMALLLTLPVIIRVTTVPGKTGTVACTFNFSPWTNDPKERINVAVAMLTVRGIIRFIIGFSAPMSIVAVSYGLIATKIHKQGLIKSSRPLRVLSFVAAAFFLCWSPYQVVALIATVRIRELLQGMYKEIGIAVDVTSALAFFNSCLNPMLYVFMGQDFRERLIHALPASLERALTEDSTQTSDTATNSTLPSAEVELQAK
Test: cell-based or functional assay
Bridges are numbered along the chain shown (N, C = ends). [ ]: non-standard residue; d: D form. Trp(5-OH) = N[C@@H](Cc1c[nH]c2ccc(O)cc12)C(=O)O; Tic = O=C(O)[C@@H]1Cc2ccccc2CN1; dTic = O=C(O)[C@H]1Cc2ccccc2CN1; hSer = N[C@@H](CCO)C(=O)O; Orn = NCCC[C@H](N)C(=O)O
Decision: β-Arrestin IC50 >= 60 nM yields Met, all other cases yield Not met.

Solved entries:
[[record]]
binder = "cyclo(YHKCHG[dP]WTICYEK[dTic]P) (disulfide 4-11; SMILES CC[C@H](C)[C@@H]1NC(=O)[C@H]([C@@H](C)O)NC(=O)[C@H](Cc2c[nH]c3ccccc23)NC(=O)[C@H]2CCCN2C(=O)CNC(=O)[C@H](Cc2c[nH]cn2)NC(=O)[C@@H]2CSSC[C@H](NC1=O)C(=O)N[C@@H](Cc1ccc(O)cc1)C(=O)N[C@@H](CCC(=O)O)C(=O)N[C@@H](CCCCN)C(=O)N1Cc3ccccc3C[C@@H]1C(=O)N1CCC[C@H]1C(=O)N[C@@H](Cc1ccc(O)cc1)C(=O)N[C@@H](Cc1c[nH]cn1)C(=O)N[C@@H](CCCCN)C(=O)N2) [cyclo(-Tyr-His-Lys-Cys-His-Gly-^DPro-Trp-Thr-Ile-Cys-Tyr-Glu-Lys-^DTic-Pro-)]"
discrete_label = "Not met"

[[record]]
binder = "cyclo(YHKCHG[dP]WTICYEK[dP][Tic]) (disulfide 4-11) [cyclo(-Tyr-His-Lys-Cys-His-Gly-^DPro-Trp-Thr-Ile-Cys-Tyr-Glu-Lys-^DPro-Tic-)]"
discrete_label = "Met"

[[record]]
binder = "cyclo(YHKC[Trp(5-OH)]G[dP]WTICYEK[dP]P) (disulfide 4-11) [cyclo(-Tyr-His-Lys-Cys-Trp(5OH)-Gly-^DPro-Trp-Thr-Ile-Cys-Tyr-Glu-Lys-^DPro-Pro-)]"
discrete_label = "Not met"

[[record]]
binder = "cyclo(YH[Orn]CHG[dP]WTICYEK[dP]P) (disulfide 4-11) [cyclo(-Tyr-His-Orn-Cys-His-Gly-^DPro-Trp-Thr-Ile-Cys-Tyr-Glu-Lys-^DPro-Pro-)]"
discrete_label = "Met"

[[record]]
binder = "cyclo(YHKCYG[dP]WTICYEK[dP]P) (disulfide 4-11; SMILES CC[C@H](C)[C@@H]1NC(=O)[C@H]([C@@H](C)O)NC(=O)[C@H](Cc2c[nH]c3ccccc23)NC(=O)[C@H]2CCCN2C(=O)CNC(=O)[C@H](Cc2ccc(O)cc2)NC(=O)[C@@H]2CSSC[C@H](NC1=O)C(=O)N[C@@H](Cc1ccc(O)cc1)C(=O)N[C@@H](CCC(=O)O)C(=O)N[C@@H](CCCCN)C(=O)N1CCC[C@@H]1C(=O)N1CCC[C@H]1C(=O)N[C@@H](Cc1ccc(O)cc1)C(=O)N[C@@H](Cc1c[nH]cn1)C(=O)N[C@@H](CCCCN)C(=O)N2) [cyclo(-Tyr-His-Lys-Cys-Tyr-Gly-^DPro-Trp-Thr-Ile-Cys-Tyr-Glu-Lys-^DPro-Pro-)]"
discrete_label = "Not met"


Lab note: next binder to report on.
Query :: Item cyclo(YHKCHG[dP]WTICY[hSer]K[dP]P) (disulfide 4-11; SMILES CC[C@H](C)[C@@H]1NC(=O)[C@H]([C@@H](C)O)NC(=O)[C@H](Cc2c[nH]c3ccccc23)NC(=O)[C@H]2CCCN2C(=O)CNC(=O)[C@H](Cc2c[nH]cn2)NC(=O)[C@@H]2CSSC[C@H](NC1=O)C(=O)N[C@@H](Cc1ccc(O)cc1)C(=O)N[C@@H](CCO)C(=O)N[C@@H](CCCCN)C(=O)N1CCC[C@@H]1C(=O)N1CCC[C@H]1C(=O)N[C@@H](Cc1ccc(O)cc1)C(=O)N[C@@H](Cc1c[nH]cn1)C(=O)N[C@@H](CCCCN)C(=O)N2) [cyclo(-Tyr-His-Lys-Cys-His-Gly-^DPro-Trp-Thr-Ile-Cys-Tyr-Hse-Lys-^DPro-Pro-)] with β-Arrestin IC50 of 60 nM or above?
Result :: Met
